test system: CEM cells HIV-1 protection, formazan growth assay; test: NCI AIDS Antiviral Assay; conditions: measured here: growth of uninfected CEM cells
Each record here notes measured IC50.
Endpoint: IC50

[
  {
    "Compound": "CCCCCCCCCCCCCCCCCC(=O)OCC1OC(OC)C(NC(=O)N(CCCl)N=O)C(O)C1O (centres undefined)",
    "Study System": "CEM cells HIV-1 protection, formazan growth assay",
    "Observed Result": "> 8.71 µM"
  },
  {
    "Compound": "COC(=O)c1cccc2cccc(C(=O)Nc3ccc(C)cc3C)c12",
    "Study System": "CEM cells HIV-1 protection, formazan growth assay",
    "Observed Result": "> 2.24 µM"
  },
  {
    "Compound": "Cn1c(=O)c(=O)n(C)c2cc(Cl)c(Cl)cc21",
    "Study System": "CEM cells HIV-1 protection, formazan growth assay",
    "Observed Result": "> 200 µM"
  },
  {
    "Compound": "Cc1ccc(NC(=O)CCc2nnc3s/c(=C\\c4cccc([N+](=O)[O-])c4)c(=O)n23)cc1",
    "Study System": "CEM cells HIV-1 protection, formazan growth assay",
    "Observed Result": "> 1.74 µM"
  },
  {
    "Compound": "CC(NS(C)(=O)=O)c1ccccc1 (centres undefined)",
    "Study System": "CEM cells HIV-1 protection, formazan growth assay",
    "Observed Result": "> 200 µM"
  },
  {
    "Compound": "COC(=O)[C@H](Cc1ccccc1)NC(=O)N(CCNCCNC(=O)OC(C)(C)C)c1ccccc1",
    "Study System": "CEM cells HIV-1 protection, formazan growth assay",
    "Observed Result": "> 100 µM"
  },
  {
    "Compound": "COc1cc(OC)nc(Nc2c(C#N)c3nc4ccccc4n3c3ccccc23)n1",
    "Study System": "CEM cells HIV-1 protection, formazan growth assay",
    "Observed Result": "> 100 µM"
  },
  {
    "Compound": "O=C1NCCS(=O)(=O)N[C@@H](CC2=CC=CCC2)C(=O)N2CCCC12 (some centres undefined)",
    "Study System": "CEM cells HIV-1 protection, formazan growth assay",
    "Observed Result": "> 708 µM"
  },
  {
    "Compound": "C=C(COC(=O)C(C)C)[C@H]1Oc2ccc(C(C)=O)cc2[C@@H]1OC(=O)C(C)C",
    "Study System": "CEM cells HIV-1 protection, formazan growth assay",
    "Observed Result": "> 200 µM"
  }
]
